# tgt: human adrenergic beta2 receptor (Homo sapiens, UniProt P07550)
# Construct: purchased Perkin Elmer; host or cells: Sf9 cells (membranes)
# Sequence (P07550 whole entry): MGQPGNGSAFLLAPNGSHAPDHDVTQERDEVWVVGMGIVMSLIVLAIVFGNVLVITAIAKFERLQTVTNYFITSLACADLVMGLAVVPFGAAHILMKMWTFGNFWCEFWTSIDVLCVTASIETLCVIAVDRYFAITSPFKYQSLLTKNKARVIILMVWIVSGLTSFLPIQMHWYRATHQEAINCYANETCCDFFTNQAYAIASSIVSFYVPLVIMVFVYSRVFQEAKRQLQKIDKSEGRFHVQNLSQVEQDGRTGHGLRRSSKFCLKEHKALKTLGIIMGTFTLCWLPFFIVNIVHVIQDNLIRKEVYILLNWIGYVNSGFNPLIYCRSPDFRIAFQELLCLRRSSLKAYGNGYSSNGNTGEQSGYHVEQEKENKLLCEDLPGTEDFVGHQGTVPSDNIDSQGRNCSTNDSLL
# assay.remarks: Human adrenergic β2 receptor binding assay (3H-CGP12177, Sf9 membranes)
# applied.conditions: membranes from Sf9 cells overexpressing human beta2; 0.6 nM 3H-CGP12177; read-out: Binding IC50, β2
# pIC50 per entry
Worth noting: pIC50 values are minus log10 of concentrations stated in mol/L.

Here are 7 molecules together with their reported answers.
# molecule, pIC50
data = [
    ("CN(CCCn1ccc2cc(CNC[C@H](O)c3ccc(O)c4[nH]c(=O)ccc34)ccc21)[C@H]1CC[C@H](OC(=O)C(O)(c2cccs2)c2cccs2)CC1 (relative stereo) [Example 4]", 6.66),
    ("CN(CCCn1c(=O)oc2cc(CNC[C@H](O)c3ccc(O)c4[nH]c(=O)ccc34)ccc21)[C@H]1CC[C@H](OC(=O)C2(C)c3ccccc3Oc3ccccc32)CC1 [Example 15]", 8.82),
    ("CN(CCCn1nnc2cc(CNC[C@H](O)c3ccc(O)c4[nH]c(=O)ccc34)ccc21)[C@H]1CC[C@H](OC(=O)[C@](O)(c2cccs2)C2CCCC2)CC1 [Example 17]", 7.89),
    ("CN(CCNC(=O)COc1ccc(CNC[C@H](O)c2ccc(O)c3[nH]c(=O)ccc23)cc1)[C@H]1CC[C@H](OC(=O)C(O)(c2cccs2)c2cccs2)CC1 (relative stereo) [Example 8]", 7.74),
    ("CN(CCCn1c(=O)sc2cc(CNC[C@H](O)c3ccc(O)c4[nH]c(=O)ccc34)ccc21)[C@H]1CC[C@H](OC(=O)C(O)(c2cccs2)c2cccs2)CC1 [Example 11]", 8.38),
    ("CN(CCN(C)[C@H]1CC[C@H](OC(=O)C(O)(c2cccs2)c2cccs2)CC1)C(=O)COc1ccc(CNC[C@H](O)c2ccc(O)c3[nH]c(=O)ccc23)cc1 [Example 6]", 7.47),
    ("CN(CCCc1nc(-c2ccc(CNC[C@H](O)c3ccc(O)c4[nH]c(=O)ccc34)cc2)no1)[C@H]1CC[C@H](OC(=O)C(O)(c2cccs2)c2cccs2)CC1 [Example 5]", 8.57),
]

Alright, here's another molecule for you.
Query: Complete the entry with pIC50 for CN(CCCn1c(=O)oc2cc(CNC[C@H](O)c3ccc(O)c4[nH]c(=O)ccc34)ccc21)[C@H]1CC[C@H](OC(=O)C(O)(c2cccs2)c2cccs2)CC1 [Example 1]
Response: 6.85

----------
# tgt: human muscarinic M3 receptor (Homo sapiens)
# Construct: purchased Perkin Elmer; host or cells: CHO-K1 cells (membranes)
# Sequence (P20309 whole entry): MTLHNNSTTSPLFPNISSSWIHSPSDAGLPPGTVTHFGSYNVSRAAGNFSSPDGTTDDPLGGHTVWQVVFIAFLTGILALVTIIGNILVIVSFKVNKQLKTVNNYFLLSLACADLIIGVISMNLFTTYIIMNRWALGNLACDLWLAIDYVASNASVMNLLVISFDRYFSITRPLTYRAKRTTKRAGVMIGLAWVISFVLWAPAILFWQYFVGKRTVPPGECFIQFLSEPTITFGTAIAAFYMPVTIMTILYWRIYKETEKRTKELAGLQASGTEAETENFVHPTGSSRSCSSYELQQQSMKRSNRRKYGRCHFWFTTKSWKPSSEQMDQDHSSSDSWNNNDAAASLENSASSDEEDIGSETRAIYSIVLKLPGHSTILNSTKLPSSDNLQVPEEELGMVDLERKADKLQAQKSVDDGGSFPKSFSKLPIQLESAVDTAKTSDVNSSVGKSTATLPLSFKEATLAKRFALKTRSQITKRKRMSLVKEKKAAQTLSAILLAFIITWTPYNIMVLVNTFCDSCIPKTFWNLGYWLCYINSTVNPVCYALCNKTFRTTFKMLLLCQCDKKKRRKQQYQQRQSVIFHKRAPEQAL
# assay.remarks: Human muscarinic M3 receptor binding assay ([3H]-NMS, CHO-K1 membranes)
# applied.conditions: membranes from CHO-K1 cells expressing human M3; 1 nM [3H]-NMS; read-out: Binding IC50, M3
readout.type: pIC50
Expect pIC50 as a plain number equal to -log10 of the molar concentration.

Below are worked cases with known answers.
# molecule, tgt, numeric.result
rows = [
    ("CN(CCN(C)[C@H]1CC[C@H](OC(=O)C(O)(c2cccs2)c2cccs2)CC1)C(=O)COc1ccc(CNC[C@H](O)c2ccc(O)c3[nH]c(=O)ccc23)cc1 [Example 6]", "human muscarinic M3 receptor (Homo sapiens)", 8.85),
    ("CN(CCCc1nc(-c2ccc(CNC[C@H](O)c3ccc(O)c4[nH]c(=O)ccc34)cc2)no1)[C@H]1CC[C@H](OC(=O)C(O)(c2cccs2)c2cccs2)CC1 [Example 5]", "human muscarinic M3 receptor (Homo sapiens)", 9.40),
]

Query: Look up and state reported pIC50 for CN(CCCn1c(=O)sc2cc(CNC[C@H](O)c3ccc(O)c4[nH]c(=O)ccc34)ccc21)[C@H]1CC[C@H](OC(=O)C(O)(c2cccs2)c2cccs2)CC1 [Example 11]
Response: 9.30
